Molecular target: gel-filtered platelets (SFLLRN-NH2 (TRAP)-stimulated aggregation) (Homo sapiens)
Sequence (P25116 42-425): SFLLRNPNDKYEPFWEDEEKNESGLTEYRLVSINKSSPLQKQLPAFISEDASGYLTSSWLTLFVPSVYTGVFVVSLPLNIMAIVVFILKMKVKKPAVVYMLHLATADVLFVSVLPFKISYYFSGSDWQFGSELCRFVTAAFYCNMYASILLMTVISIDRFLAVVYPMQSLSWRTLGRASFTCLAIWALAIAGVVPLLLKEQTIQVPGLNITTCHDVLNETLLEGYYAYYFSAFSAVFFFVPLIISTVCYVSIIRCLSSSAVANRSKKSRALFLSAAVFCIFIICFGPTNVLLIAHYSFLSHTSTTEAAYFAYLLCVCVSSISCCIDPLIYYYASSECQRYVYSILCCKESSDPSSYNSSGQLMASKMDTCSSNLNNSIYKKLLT
Test: In vitro inhibition of SFLLRN-NH2 (TRAP)-induced gel-filtered platelet aggregation
Settings: agonist SFLLRN-NH2 (TRAP)
I'd appreciate it if you could supply IC50 values for the items below.
Answers are plain numbers, in µM.

smiles.input | IC50 (µM)
Cc1oc([C@H](Cc2ccc(F)cc2)NC(=O)[C@@H](N)Cc2cn(Cc3ccccc3)cn2)nc1C(=O)N[C@@H](CC1CCCCC1)C(=O)N[C@@H](CCCNC(=N)N)C(=O)NCc1ccccc1 | 5

For the next question, use this molecule.
Note to self: IC50 recorded for `Cc1oc([C@H](Cc2ccc(F)cc2)N(C)C)nc1C(=O)N[C@@H](CC1CCCCC1)C(=O)N[C@@H](CCCNC(=N)N)C(=O)NCc1ccccc1` was 17
